Test system: human cervical tumor cell line HeLa (ATCC CCL-2)
Test: SAC-Formation - Nocodazole-Induced Assay
Type: cell-based
Conditions: Homo sapiens, HeLa, 24 h, HeLa cells, nocodazole 0.1 μg/ml together with test compound, decrease of mitotic cells (phospho-histone H3 Ser10)
pIC50: −log10 of the molar value.
result_type: pIC50

compound: Cc1nsc(Nc2cnc(C(F)(F)F)cn2)c1C(=O)Nc1ccc(OC[C@H]2CCN(CC(F)F)C2)nc1
assay_system: human cervical tumor cell line HeLa (ATCC CCL-2)
assay_result: 7.57
//
compound: Cc1nsc(Nc2cnc3ccccc3n2)c1C(=O)Nc1ccc(F)c(C(N)=O)c1
assay_system: human cervical tumor cell line HeLa (ATCC CCL-2)
assay_result: 6.66
//
compound: Cc1nsc(Nc2cnc(C(F)(F)F)cn2)c1C(=O)Nc1ccc(F)c(OC[C@H]2CCN(CCC(F)(F)F)C2)c1
assay_system: human cervical tumor cell line HeLa (ATCC CCL-2)
assay_result: 7.54
//
compound: Cc1nsc(Nc2cnc(C(F)(F)F)cn2)c1C(=O)Nc1ccc(OC2CCN(CCC(F)(F)F)C2)nc1 (stereo not drawn)
assay_system: human cervical tumor cell line HeLa (ATCC CCL-2)
assay_result: 7.10
//
compound: Cc1nsc(Nc2cnc(C(F)(F)F)cn2)c1C(=O)Nc1ccc(OCCNCCF)nc1
assay_system: human cervical tumor cell line HeLa (ATCC CCL-2)
assay_result: 6.85
//
compound: Cc1nsc(Nc2cnc3ccccc3n2)c1C(=O)Nc1cccc(C(=O)N2CCC(N3CCCCC3)CC2)c1
assay_system: human cervical tumor cell line HeLa (ATCC CCL-2)
assay_result: 7.51
//
compound: Cc1nsc(Nc2cnc(C(F)(F)F)cn2)c1C(=O)Nc1ccc(C(=O)O)cc1
assay_system: human cervical tumor cell line HeLa (ATCC CCL-2)
assay_result: 7.62
//
compound: Cc1nsc(Nc2cnc(C(F)(F)F)cn2)c1C(=O)Nc1ccc(F)c(OC2CCN(C(=O)OC(C)(C)C)CC2)c1
assay_system: human cervical tumor cell line HeLa (ATCC CCL-2)
assay_result: 6.85
//
compound: Cc1nsc(Nc2cnc(C(F)(F)F)cn2)c1C(=O)Nc1ccc(OC2CCCN(CCF)C2)nc1 (stereo not drawn)
assay_system: human cervical tumor cell line HeLa (ATCC CCL-2)
assay_result: 7.46
//
compound: Cc1nsc(Nc2ccc(C#N)cn2)c1C(=O)Nc1ccc(OC2CCCN(CCF)C2)nc1 (stereo not drawn)
assay_system: human cervical tumor cell line HeLa (ATCC CCL-2)
assay_result: 5.74
//
compound: Cc1nsc(Nc2cnc(C(F)(F)F)cn2)c1C(=O)Nc1ccc(N2CCN(CC(F)(F)F)CC2)cn1
assay_system: human cervical tumor cell line HeLa (ATCC CCL-2)
assay_result: 6.59
//
compound: Cc1nsc(Nc2cnc(C(F)(F)F)cn2)c1C(=O)Nc1ccc(O[C@@H]2CN(CC(F)F)C[C@@H]2F)nc1
assay_system: human cervical tumor cell line HeLa (ATCC CCL-2)
assay_result: 7.62
//
compound: CC(=O)N1CCC(Oc2ccc(NC(=O)c3c(C)nsc3Nc3cnc4ccccc4n3)cn2)CC1
assay_system: human cervical tumor cell line HeLa (ATCC CCL-2)
assay_result: 6.24
//
compound: COc1ccc(NC(=O)c2c(C)nsc2Nc2ccc(C#N)cn2)c(N2CCOCC2)n1
assay_system: human cervical tumor cell line HeLa (ATCC CCL-2)
assay_result: 5.72
//
compound: Cc1nsc(Nc2cnc3ccccc3n2)c1C(=O)Nc1cccc(NS(=O)(=O)C2CCN(C(=O)OC(C)(C)C)CC2)c1
assay_system: human cervical tumor cell line HeLa (ATCC CCL-2)
assay_result: 6.22
//
compound: Cc1nsc(Nc2cnc3ccccc3n2)c1C(=O)Nc1ccc(OC2CCN(C(=O)OC(C)(C)C)CC2)nc1
assay_system: human cervical tumor cell line HeLa (ATCC CCL-2)
assay_result: 7.36
//
compound: Cc1nsc(Nc2cc(C#N)ccn2)c1C(=O)Nc1ccc(OCCCNC(=O)OC(C)(C)C)nc1
assay_system: human cervical tumor cell line HeLa (ATCC CCL-2)
assay_result: 6.89
//
compound: Cc1nsc(Nc2cncc(C(F)(F)F)n2)c1C(=O)Nc1ccc(OCC2CCN(C(=O)OC(C)(C)C)CC2)nc1
assay_system: human cervical tumor cell line HeLa (ATCC CCL-2)
assay_result: 6.92
//
compound: Cc1nsc(Nc2cnc(C(F)(F)F)cn2)c1C(=O)Nc1ccc(O[C@@H]2CCN(CC(F)F)C[C@H]2F)nc1
assay_system: human cervical tumor cell line HeLa (ATCC CCL-2)
assay_result: 7.24
//
compound: CNS(=O)(=O)c1ccc(NC(=O)c2c(C)nsc2Nc2cnc3ccccc3n2)cc1
assay_system: human cervical tumor cell line HeLa (ATCC CCL-2)
assay_result: 6.96
//
compound: Cc1nsc(Nc2cnc(C(F)(F)F)cn2)c1C(=O)Nc1ccc(N(C)C)c(OCCCN(C)CC(F)(F)F)c1
assay_system: human cervical tumor cell line HeLa (ATCC CCL-2)
assay_result: 6.68
//
compound: Cc1nsc(Nc2cnc(C(F)(F)F)cn2)c1C(=O)Nc1ccc(OC2CCCN(C(CF)CF)C2)nc1 (stereo not drawn)
assay_system: human cervical tumor cell line HeLa (ATCC CCL-2)
assay_result: 7.14
//
compound: Cc1nsc(Nc2cnccn2)c1C(=O)Nc1ccc(OCCCN)nc1
assay_system: human cervical tumor cell line HeLa (ATCC CCL-2)
assay_result: 5.24
//
compound: Cc1nsc(Nc2cnc(C(F)(F)F)cn2)c1C(=O)Nc1ccc(OC2CCN(CC(F)(F)F)CC2)nc1
assay_system: human cervical tumor cell line HeLa (ATCC CCL-2)
assay_result: 6.66
//
compound: Cc1nsc(Nc2cnc3ccccc3n2)c1C(=O)Nc1cccc(C(=O)N[C@H](C(=O)O)[C@@H](C)OC(C)(C)C)c1
assay_system: human cervical tumor cell line HeLa (ATCC CCL-2)
assay_result: 5.74
//
compound: Cc1nsc(Nc2cncc(C(F)(F)F)n2)c1C(=O)Nc1ccc(OC2CCN(CC(F)(F)F)CC2)nc1
assay_system: human cervical tumor cell line HeLa (ATCC CCL-2)
assay_result: 7.39
//
compound: Cc1nsc(Nc2cnc(C(F)(F)F)cn2)c1C(=O)Nc1ccc(N2CCN(CC(F)F)CC2)cn1
assay_system: human cervical tumor cell line HeLa (ATCC CCL-2)
assay_result: 6.92
//
compound: Cc1nsc(Nc2cnc(C(F)(F)F)cn2)c1C(=O)Nc1ccc(OCC2CCN(CC(F)(F)F)CC2(F)F)nc1 (stereo not drawn)
assay_system: human cervical tumor cell line HeLa (ATCC CCL-2)
assay_result: 7.13
//
compound: COC(=O)CCc1cccc(NC(=O)c2c(C)nsc2Nc2cnc3ccccc3n2)c1
assay_system: human cervical tumor cell line HeLa (ATCC CCL-2)
assay_result: 6.26
//
compound: Cc1nsc(Nc2cncc(C(F)(F)F)n2)c1C(=O)Nc1ccc(OCCCN)nc1
assay_system: human cervical tumor cell line HeLa (ATCC CCL-2)
assay_result: 5.68

Source listed as patent US20170334899A1.
